Hey, just so you know, these numbers are from the METLIN SMRT retention time set (Domingo-Almenara et al. 2019).

test: gradient 5% acetonitrile 3 min, to 50% in 2 min, to 85% in 15 min, held 3 min, 100 µL/min; details: column: Zorbax Extend-C18 2.1 x 50 mm; eluents: water / acetonitrile, 0.1% formic acid
measured property: RP-LC retention time (s)
Quick reminder: number only, in s, skip the unit.

Example entries begin here.
{"compound": "CCOC(=O)c1c(C)[nH]c(C(=O)N2CCC(C(C)C(=O)NCc3ccc(OC(C)C)cc3)CC2)c1C (centres undefined)", "RP-LC retention time / s": 892}
{"compound": "O=C(CSc1ncnc2c1nnn2Cc1ccccc1)Nc1ccc2c(c1)OCCO2", "RP-LC retention time / s": 830}
{"compound": "COCCN1C(=O)CC[C@]2(C(=O)N(C)CCc3ccccn3)CCCC[C@@H]12", "RP-LC retention time / s": 546}
{"compound": "O=C1CCCc2c1cc(C(=O)NCc1ccccn1)c(=O)n2-c1ccc(F)cc1", "RP-LC retention time / s": 630}
{"compound": "Cc1cc(=O)n(CC(=O)Nc2ccc(Cl)cc2)c(N2CCc3ccccc3C2)n1", "RP-LC retention time / s": 855}

Endpoint output: RP-LC retention time of Cc1ccccc1CC(=O)Nc1cc(-c2cccs2)no1 . Value?
969

And for CCCN1C(=O)c2cc(S(=O)(=O)N3CCOCC3)ccc2Oc2cccnc21 ?
926

Try the compound O=C1C2CCCN2C(c2ccncc2)N1c1cccc(Cl)c1 (centres undefined)
587

Another compound to look at: COc1cccc(NC(=O)N2CCC3(CC2)NC(=O)c2ccccc2O3)c1
745
